# target.desc: human GPR119 (Homo sapiens)
# Sequence (Q8TDV5 1-308 limits assumed): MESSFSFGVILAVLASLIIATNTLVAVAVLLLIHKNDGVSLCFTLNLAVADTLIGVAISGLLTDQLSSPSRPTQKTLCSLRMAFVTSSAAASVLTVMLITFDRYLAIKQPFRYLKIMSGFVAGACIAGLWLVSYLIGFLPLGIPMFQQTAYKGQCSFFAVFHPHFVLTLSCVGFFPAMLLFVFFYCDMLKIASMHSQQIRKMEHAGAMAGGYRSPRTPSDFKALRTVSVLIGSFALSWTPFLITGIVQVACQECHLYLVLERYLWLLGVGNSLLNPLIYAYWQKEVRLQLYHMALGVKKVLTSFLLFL
# assay.comment: Measurement of GPR119 signaling (cAMP assay) in cells stably transfected with human GPR119
# Format: cell-based
# condition.parameters: table column; cAMP stimulation, human GPR119; read-out: GPR119 Human EC50
measurement.kind: EC50 (nM)

P. CS(=O)(=O)c1ccc(OCC[C@@H]2C[C@@H]2C2CCN(c3nnc(-c4ccccc4)o3)CC2)nc1
Q. CC(C)c1noc(N2CCC([C@H]3C[C@H]3CCOc3ccc(CC(=O)N(C)C)cc3)CC2)n1
R. CC(C)c1noc(N2CCC([C@H]3C[C@H]3CCOc3ccc(CC(=O)N4CCc5[nH]nnc5C4)c(F)c3)CC2)n1
Query: Order the records so the highest EC50 appears first and the lowest last. Response field: labels, in requested order.
Response: P, Q, R
